Cited source for all entries: patent US8846947B2

# Target Desc: SIRT1 (Homo sapiens)
# Sequence (Q96EB6 whole entry): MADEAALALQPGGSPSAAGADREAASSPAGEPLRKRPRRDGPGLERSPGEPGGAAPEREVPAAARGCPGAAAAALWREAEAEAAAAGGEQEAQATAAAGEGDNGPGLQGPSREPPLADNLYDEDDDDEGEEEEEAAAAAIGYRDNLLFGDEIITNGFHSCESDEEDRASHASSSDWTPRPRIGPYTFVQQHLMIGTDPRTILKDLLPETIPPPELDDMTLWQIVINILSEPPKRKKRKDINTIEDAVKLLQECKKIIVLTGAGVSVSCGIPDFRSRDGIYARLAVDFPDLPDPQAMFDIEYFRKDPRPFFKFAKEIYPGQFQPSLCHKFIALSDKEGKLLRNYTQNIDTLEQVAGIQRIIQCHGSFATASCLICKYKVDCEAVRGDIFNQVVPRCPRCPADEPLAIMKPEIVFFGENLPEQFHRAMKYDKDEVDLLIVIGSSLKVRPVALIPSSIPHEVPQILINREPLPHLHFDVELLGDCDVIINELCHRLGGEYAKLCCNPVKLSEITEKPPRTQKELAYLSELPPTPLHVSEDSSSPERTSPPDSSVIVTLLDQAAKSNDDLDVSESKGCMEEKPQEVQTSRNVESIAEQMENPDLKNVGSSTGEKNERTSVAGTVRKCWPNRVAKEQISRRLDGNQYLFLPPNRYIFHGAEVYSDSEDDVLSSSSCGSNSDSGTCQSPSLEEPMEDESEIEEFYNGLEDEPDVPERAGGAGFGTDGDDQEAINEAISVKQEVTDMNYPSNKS
# Measurement Description: Mass spectrometry based SIRT1 deacetylase activation assay (acetylated p53-derived peptide substrate)
# Assay type: biochemical
Structures can show the parent of a compound that is named as a salt.
Assay Endpoint: EC1.5

[
  {
    "Compound": "O=C(Nc1nccs1)c1cccc2[nH]c(-c3ncccc3C(F)(F)F)nc12",
    "Result": "B (EC1.5 1-25 uM)"
  },
  {
    "Compound": "O=C(Nc1nccs1)c1cccc2[nH]c(-c3cc(F)ccc3C(F)(F)F)nc12",
    "Result": "A (EC1.5<1.0 uM)"
  },
  {
    "Compound": "O=C(Nc1nc(-c2ccccc2)cs1)c1cccc2[nH]c(-c3cccc(C(F)(F)F)c3)nc12",
    "Result": "B (EC1.5 1-25 uM)"
  },
  {
    "Compound": "O=C(Nc1nccs1)c1cccc2[nH]c(-c3ccc(N4CCNCC4)nc3)nc12 [Compound 251, hydrochloride]",
    "Result": "A (EC1.5<1.0 uM)"
  },
  {
    "Compound": "O=C(Nc1nccs1)c1cccc2[nH]c(-c3ccncc3Cl)nc12",
    "Result": "B (EC1.5 1-25 uM)"
  }
]

Request: Identify measured EC1.5 associated with `Cc1cnc(NC(=O)c2cccc3[nH]c(-c4cc(F)ccc4C(F)(F)F)nc23)s1`
Result: A (EC1.5<1.0 uM)

Request: Identify measured EC1.5 associated with `O=C(Nc1nccs1)c1cccc2[nH]c(-c3ccc4ccccc4c3)nc12`
Result: B (EC1.5 1-25 uM)

Request: Identify measured EC1.5 associated with `O=C(Nc1cnccn1)c1cccc2[nH]c(-c3cccc(OC(F)(F)F)c3)nc12`
Result: A (EC1.5<1.0 uM)

Request: Identify measured EC1.5 associated with `Cc1nc(C)c(-c2nc3c(C(=O)Nc4ccccn4)cccc3[nH]2)s1`
Result: B (EC1.5 1-25 uM)

Request: Identify measured EC1.5 associated with O=C(NC1CCOC1=O)c1cccc2[nH]c(-c3cccc(N4CCOCC4)c3)nc12 (centres unmarked)
Result: B (EC1.5 1-25 uM)

Request: Identify measured EC1.5 associated with `O=C(Nc1nc2ccccc2s1)c1cccc2[nH]c(-c3cccc(C(F)(F)F)c3)nc12`
Result: B (EC1.5 1-25 uM)

Request: Identify measured EC1.5 associated with `O=C(Nc1cccc2[nH]c(-c3cccc(C(F)(F)F)c3)nc12)c1cccnc1`
Result: B (EC1.5 1-25 uM)

Request: Identify measured EC1.5 associated with `Cc1cnc(NC(=O)c2cccc3[nH]c(-c4ccc(F)cc4C(F)(F)F)nc23)s1`
Result: A (EC1.5<1.0 uM)

Request: Identify measured EC1.5 associated with `O=C(Nc1nccs1)c1cccc2[nH]c(-c3ccccc3OC(F)(F)F)nc12`
Result: A (EC1.5<1.0 uM)

Request: Identify measured EC1.5 associated with `O=C(Nc1ncc(F)s1)c1cccc2[nH]c(-c3ccc(Cl)cc3C(F)(F)F)nc12`
Result: A (EC1.5<1.0 uM)

Request: Identify measured EC1.5 associated with `O=C(Nc1cccnc1)c1cccc2[nH]c(-c3cc(F)ccc3C(F)(F)F)nc12`
Result: A (EC1.5<1.0 uM)
